Here we list molecules with their recorded Ki when tested on 5-hydroxytryptamine receptor 2A (Homo sapiens).
Sequence (P28223 whole entry): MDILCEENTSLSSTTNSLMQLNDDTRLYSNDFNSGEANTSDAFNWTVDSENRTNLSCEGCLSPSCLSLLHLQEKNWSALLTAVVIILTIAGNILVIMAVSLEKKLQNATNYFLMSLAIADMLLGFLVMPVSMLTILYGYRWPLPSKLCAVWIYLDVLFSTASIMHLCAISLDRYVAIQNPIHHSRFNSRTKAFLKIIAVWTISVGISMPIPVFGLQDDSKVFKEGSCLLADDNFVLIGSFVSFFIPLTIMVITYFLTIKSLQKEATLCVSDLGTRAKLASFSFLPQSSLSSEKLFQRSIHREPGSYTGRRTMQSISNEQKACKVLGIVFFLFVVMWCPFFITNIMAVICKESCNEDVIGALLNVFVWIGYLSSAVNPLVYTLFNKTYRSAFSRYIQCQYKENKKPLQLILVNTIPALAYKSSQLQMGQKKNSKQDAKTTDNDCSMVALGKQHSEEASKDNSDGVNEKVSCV

Suppose we examine the molecule `Cc1cc(OCCCN2CCN(c3ccc([N+](=O)[O-])cc3)CC2)c2c(C)cc(=O)oc2c1` ; what Ki value has been reported?
> 10 µM

Please give the measured Ki for this molecule: `Cc1cc(OCCCCN2CCN(c3ccncc3)CC2)c2c(C)cc(=O)oc2c1`
> 5 µM

Query: Ki; subject: `Cc1cc(OCCCN2CCN(c3ccncc3)CC2)c2c(C)cc(=O)oc2c1`
> 5 µM
